System: ORYZA SATIVA, L. TEBONNET
Experiment: Rice tolerance to post-transplant applications under flooded paddy conditions, ORYSAT (Rice, Tebonnet)
Format: in vivo
Conditions: post-transplanted rice, Rate 0.125 kg/ha
Listed next: entries and their corresponding ORYSAT.
// keep it numeric: no unit symbol after the value

See these solved cases before continuing.
COC(=O)Cn1c(=O)n(C)c(=O)n(-c2cc(Oc3ccc(C(F)(F)F)cc3Cl)ccc2Cl)c1=O; 3.5
Cn1c(=O)[nH]c(=O)n(-c2cc(Oc3ccc(C(F)(F)F)cc3Cl)ccc2Cl)c1=O [F, reference compound]; 1.0
Cn1c(=O)[nH]c(=O)n(-c2cc(Oc3c(F)cc(C(F)(F)F)cc3Cl)ccc2F)c1=O [C, reference compound]; 3.0

Can you look up ORYSAT on ORYZA SATIVA, L. TEBONNET for `COC(=O)Cn1c(=O)n(C)c(=O)n(-c2cc(Oc3ccc(C(F)(F)F)cc3Cl)ccc2[N+](=O)[O-])c1=O` ?
3.0

Lab note: need ORYSAT for Cn1c(=O)[nH]c(=O)n(-c2cc(Oc3c(F)cc(C(F)(F)F)cc3Cl)ccc2[N+](=O)[O-])c1=O [D, reference compound] on ORYZA SATIVA, L. TEBONNET, anyone have it?
3.0

GET /values?readout=ORYSAT&system=ORYZA SATIVA, L. TEBONNET&item= `COC(=O)Cn1c(=O)n(C)c(=O)n(-c2cc(Oc3c(F)cc(C(F)(F)F)cc3Cl)ccc2[N+](=O)[O-])c1=O`
5.0

ORYSAT of `COC(=O)Cn1c(=O)n(C)c(=O)n(-c2cc(Oc3c(F)cc(C(F)(F)F)cc3Cl)ccc2F)c1=O` on ORYZA SATIVA, L. TEBONNET?
3.6

Provide value of ORYSAT for this record tested with ORYZA SATIVA, L. TEBONNET: Cn1c(=O)[nH]c(=O)n(-c2cc(Oc3ccc(C(F)(F)F)cc3Cl)ccc2[N+](=O)[O-])c1=O [B, reference compound]
2.5

###

ORYSAT by entry:
Tested on: ORYZA SATIVA, L. TEBONNET
Assay: Rice tolerance to post-transplant applications under flooded paddy conditions, ORYSAT (Rice, Tebonnet)
Type: in vivo
Conditions: post-transplanted rice, Rate 0.250 kg/ha
// return just the number, without any unit appended

See these solved cases before continuing.
Cn1c(=O)[nH]c(=O)n(-c2cc(Oc3ccc(C(F)(F)F)cc3Cl)ccc2[N+](=O)[O-])c1=O [B, reference compound]; 4.5
COC(=O)Cn1c(=O)n(C)c(=O)n(-c2cc(Oc3ccc(C(F)(F)F)cc3Cl)ccc2[N+](=O)[O-])c1=O; 3.8
Cn1c(=O)[nH]c(=O)n(-c2cc(Oc3ccc(C(F)(F)F)cc3Cl)ccc2Cl)c1=O [F, reference compound]; 2.0
COC(=O)Cn1c(=O)n(C)c(=O)n(-c2cc(Oc3ccc(C(F)(F)F)cc3Cl)ccc2Cl)c1=O; 5.0

Next molecule, please.
Find the recorded ORYSAT belonging to `COC(=O)Cn1c(=O)n(C)c(=O)n(-c2cc(Oc3c(F)cc(C(F)(F)F)cc3Cl)ccc2F)c1=O` and report it.
3.7

###

Property: ORYSAT; scope: individual compounds
Test system: ORYZA SATIVA, L. TEBONNET
Assay: Rice tolerance to post-transplant applications under flooded paddy conditions, ORYSAT (Rice, Tebonnet)
Type: in vivo
Conditions: post-transplanted rice, Rate 0.063 kg/ha
Reply with the value as a number alone.

Cn1c(=O)[nH]c(=O)n(-c2cc(Oc3ccc(C(F)(F)F)cc3Cl)ccc2[N+](=O)[O-])c1=O [B, reference compound]; 3.0
Cn1c(=O)[nH]c(=O)n(-c2cc(Oc3c(F)cc(C(F)(F)F)cc3Cl)ccc2F)c1=O [C, reference compound]; 1.0
COC(=O)Cn1c(=O)n(C)c(=O)n(-c2cc(Oc3ccc(C(F)(F)F)cc3Cl)ccc2[N+](=O)[O-])c1=O [Compound 3]; 2.7
Cn1c(=O)[nH]c(=O)n(-c2cc(Oc3c(F)cc(C(F)(F)F)cc3Cl)ccc2[N+](=O)[O-])c1=O [D, reference compound]; 3.0
COC(=O)Cn1c(=O)n(C)c(=O)n(-c2cc(Oc3c(F)cc(C(F)(F)F)cc3Cl)ccc2[N+](=O)[O-])c1=O [Compound 16]; 3.5
COC(=O)Cn1c(=O)n(C)c(=O)n(-c2cc(Oc3c(F)cc(C(F)(F)F)cc3Cl)ccc2F)c1=O [Compound 4]; 2.1
Cn1c(=O)[nH]c(=O)n(-c2cc(Oc3ccc(C(F)(F)F)cc3Cl)ccc2Cl)c1=O [F, reference compound]; 0.0

Tell me the measured ORYSAT of COC(=O)Cn1c(=O)n(C)c(=O)n(-c2cc(Oc3ccc(C(F)(F)F)cc3Cl)ccc2Cl)c1=O [Compound 39] , please.
2.5

###

Test system: ECHINOCHLOA CRUS-GALLI, (L) BEAU
Test: Postemergence herbicidal evaluation, ECHCG (Barnyardgrass)
Format: in vivo
Design: key: 0-9 visual rating scale vs untreated control
Conditions: Rate 0.063 kg/ha
assayMetric: ECHCG
Give the value as a plain number.

Known results for molecules:
Cn1c(=O)[nH]c(=O)n(-c2cccc(Oc3ccc(C(F)(F)F)cc3Cl)c2)c1=O [E, reference compound]; 0.0
COC(=O)Cn1c(=O)n(C)c(=O)n(-c2cc(Oc3c(F)cc(C(F)(F)F)cc3Cl)ccc2[N+](=O)[O-])c1=O; 1.7
Cn1c(=O)[nH]c(=O)n(-c2cc(Oc3ccc(C(F)(F)F)cc3Cl)ccc2Cl)c1=O [F, reference compound]; 0.0

Name the recorded ECHCG for Cn1c(=O)[nH]c(=O)n(-c2cc(Oc3c(F)cc(C(F)(F)F)cc3Cl)ccc2[N+](=O)[O-])c1=O [D, reference compound] .
2.0

Name the reported ECHCG value associated with the molecule `COC(=O)Cn1c(=O)n(C)c(=O)n(-c2cc(Oc3ccc(C(F)(F)F)cc3Cl)ccc2Cl)c1=O`
1.0

###

System: ORYZA SATIVA, L. TEBONNET
Assay: Rice tolerance to post-transplant applications under flooded paddy conditions, ORYSAT (Rice, Tebonnet)
Type: in vivo
Settings: post-transplanted rice, Rate 0.031 kg/ha
assayMetric: ORYSAT
Give only the figure.

// solved cases for ORYSAT follow
Cn1c(=O)[nH]c(=O)n(-c2cc(Oc3ccc(C(F)(F)F)cc3Cl)ccc2[N+](=O)[O-])c1=O [B, reference compound]; 2.0
COC(=O)Cn1c(=O)n(C)c(=O)n(-c2cc(Oc3ccc(C(F)(F)F)cc3Cl)ccc2Cl)c1=O [Compound 39]; 1.8
COC(=O)Cn1c(=O)n(C)c(=O)n(-c2cc(Oc3c(F)cc(C(F)(F)F)cc3Cl)ccc2F)c1=O [Compound 4]; 1.6
Cn1c(=O)[nH]c(=O)n(-c2cc(Oc3c(F)cc(C(F)(F)F)cc3Cl)ccc2[N+](=O)[O-])c1=O [D, reference compound]; 3.0

Look at this compound and give its reported ORYSAT. Cn1c(=O)[nH]c(=O)n(-c2cc(Oc3c(F)cc(C(F)(F)F)cc3Cl)ccc2F)c1=O [C, reference compound]
1.0

Data request, read-out ORYSAT, for COC(=O)Cn1c(=O)n(C)c(=O)n(-c2cc(Oc3ccc(C(F)(F)F)cc3Cl)ccc2[N+](=O)[O-])c1=O [Compound 3]
1.0

For the compound Cn1c(=O)[nH]c(=O)n(-c2cc(Oc3ccc(C(F)(F)F)cc3Cl)ccc2Cl)c1=O [F, reference compound] , what ORYSAT is on record?
0.0

GET /values?readout=ORYSAT&item= COC(=O)Cn1c(=O)n(C)c(=O)n(-c2cc(Oc3c(F)cc(C(F)(F)F)cc3Cl)ccc2[N+](=O)[O-])c1=O [Compound 16]
3.0

###

Tested on: ORYZA SATIVA, L. TEBONNET
Assay: Rice tolerance to post-transplant applications under flooded paddy conditions, ORYSAT (Rice, Tebonnet)
Format: in vivo
Conditions: 0.063 kg/ha, post-transplant rice, 3-4 weeks after treatment
Reported Herbicidal effect rating, ORYSAT values are given for each entry in this list.

// known answers, use as guide
Cn1c(=O)n(CC(=O)OC(C)(C)C)c(=O)n(-c2cc(Oc3c(F)cc(C(F)(F)F)cc3Cl)ccc2F)c1=O [Compound 41]; 0.0
Cn1c(=O)n(CC(=O)O)c(=O)n(-c2cc(Oc3c(F)cc(C(F)(F)F)cc3Cl)ccc2[N+](=O)[O-])c1=O [Compound 15]; 4.5
Cn1c(=O)n(CC(=O)OC(C)(C)C)c(=O)n(-c2cc(Oc3ccc(C(F)(F)F)cc3Cl)ccc2Cl)c1=O [Compound 40]; 0.5

Look up Herbicidal effect rating, ORYSAT: COC(=O)Cn1c(=O)n(C)c(=O)n(-c2cc(Oc3ccc(F)cc3C(F)(F)F)ccc2[N+](=O)[O-])c1=O [Compound 21]
0.0

Any idea what Herbicidal effect rating, ORYSAT was measured for COC(=O)Cn1c(=O)n(C)c(=O)n(-c2cc(Oc3c(Cl)cc(Cl)cc3Cl)ccc2[N+](=O)[O-])c1=O [Compound 33] ?
3.0
